Listing of entries alongside the reported GI50.
Test system: SNB-19
Method summary: NCI tumour cell line growth inhibition, 48 h
Calls of active or inactive are those of the source. Rule as the data show it: active = GI50 up to about 1.1 µM and inactive = higher.

O=C(O)c1ccc2c(c1C(=O)O)C(=O)OC2(c1ccc(O)cc1)c1ccc(O)cc1; > 100 µM (inactive)

### Prompt Report GI50 from SNB-19 testing of CC[C@H](C)[C@H](NC(=O)[C@@]1(O)[C@H](O)[C@]2(CC)C=CCN3CC[C@@]4(c5cc(Br)c(OC)cc5N(C)[C@@H]14)[C@@H]32)C(=O)OC
### Response 64.3 µM (inactive)

### Prompt Report GI50 from SNB-19 testing of Fc1ccccc1C1SCc2nc3ccccc3n21 (stereo not given)
### Response 86.7 µM (inactive)

### Prompt Report GI50 from SNB-19 testing of CCCCCCCCCCCC(=O)C1=C(O)CC(O)CC1=O (stereo not given)
### Response > 100 µM (inactive)

### Prompt Report GI50 from SNB-19 testing of C=CCSS/C=C/C[S+]([O-])CC=C (stereo not given)
### Response > 100 µM (inactive)
